- assayed_system: T1, human LAG3 expressed on cells (human, UniProt P18627 23-525)
- T1 sequence (looked up): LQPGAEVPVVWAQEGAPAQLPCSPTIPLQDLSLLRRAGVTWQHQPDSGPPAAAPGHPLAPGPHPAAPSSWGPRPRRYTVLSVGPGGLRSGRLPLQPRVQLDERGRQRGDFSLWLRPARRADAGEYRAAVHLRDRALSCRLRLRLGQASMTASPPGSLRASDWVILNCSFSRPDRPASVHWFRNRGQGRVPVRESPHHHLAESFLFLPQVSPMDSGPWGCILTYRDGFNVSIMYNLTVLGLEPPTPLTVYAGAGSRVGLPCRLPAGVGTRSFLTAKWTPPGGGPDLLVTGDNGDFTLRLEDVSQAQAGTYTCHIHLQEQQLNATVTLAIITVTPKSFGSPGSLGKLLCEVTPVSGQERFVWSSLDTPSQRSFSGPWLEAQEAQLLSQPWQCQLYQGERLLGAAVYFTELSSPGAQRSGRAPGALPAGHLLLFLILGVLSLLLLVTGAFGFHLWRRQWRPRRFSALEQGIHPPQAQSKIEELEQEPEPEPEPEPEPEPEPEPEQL
- assay_info: cell-based or functional assay
# IL-2, % of BMS, at 1.234567901 ug/mL per record follows
API: value field is a number in %; no unit string.

{"binder": "sdAb No. 27 (VHH, Fc of the tested form not described; also called sdAb 27; not shown: Fc part implied by anti-human Fc capture and anti-human IgG Fc detection) VHH: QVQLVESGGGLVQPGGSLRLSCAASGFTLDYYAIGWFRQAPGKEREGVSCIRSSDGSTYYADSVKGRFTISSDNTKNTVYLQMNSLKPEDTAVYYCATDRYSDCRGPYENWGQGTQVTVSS", "meas_value": 36.5}
{"binder": "sdAb No. 20 (VHH, Fc of the tested form not described; also called sdAb 20; not shown: Fc part implied by anti-human Fc capture) VHH: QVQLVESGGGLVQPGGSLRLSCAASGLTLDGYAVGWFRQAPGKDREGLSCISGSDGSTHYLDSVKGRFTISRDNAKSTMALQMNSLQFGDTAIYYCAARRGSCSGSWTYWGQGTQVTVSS", "meas_value": 20.3}
{"binder": "sdAb No. 17 (VHH, Fc of the tested form not described; also called sdAb 17; not shown: Fc part implied by anti-human Fc capture and anti-human IgG1 Fc detection) VHH: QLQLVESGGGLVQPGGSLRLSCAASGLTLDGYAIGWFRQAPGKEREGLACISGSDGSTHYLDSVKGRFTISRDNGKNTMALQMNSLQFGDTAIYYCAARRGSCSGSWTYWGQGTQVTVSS", "meas_value": 26.5}

// lookup IL-2, % of BMS, at 1.234567901 ug/mL for sdAb No. 18 (VHH, Fc of the tested form not described; also called sdAb 18; not shown: Fc part implied by anti-human Fc capture) VHH: QVQLVESGGGLVQPGGSLRLSCAASGFTLNEHAIGWFRRAPGKEREGVSCISSSDGSTYYHDSVKGRFNMSRDDAKNSVYLQMSSLKPEDTAIYYCAAALGRDCQGGQWKTSSWGQGTQVTVSS
15.5

Same thing, different binder: sdAb No. 73 (VHH, Fc not described; also called sdAb 73; not shown: Fc part implied by anti-human Fc capture) VHH: QVQLVESGGGLVQPGGSLKLSCTASGFTLDYYAIAWFRQAPGKEREAVSCISSSDGSTRYADSVKGRFTISRDNAKNTVYLQMNSLKPEDTAVYYCAADPYGDCRGPYDYWGQGTQVTVSS
19.5
